test: Solubility in aqueous buffer; type: physicochemical; details: aqueous buffer, pH 7.4, aqueous buffer, aqueous buffer, pH 7.4, Re-test; read-out: Solubility pH 7.4 (uM) Re-test
PROPERTY: solubility (µM)

P = C=CC(=O)Nc1cc(CN2CCN(C)C(=O)C2)cc(-c2cnc3ccccc3n2)c1
Q = C=CC(=O)Nc1cc(CN2CCNC(=O)C2)cc(-c2cnc3ccccc3n2)c1
R = C=CC(=O)Nc1cc(NS(C)(=O)=O)cc(-c2cnc3ccccc3n2)c1
S = C=CC(=O)Nc1cc(CC(=O)OC)cc(-c2cnc3ccccc3n2)c1
Ranking criterion: solubility, increasing numeric value. Items: as listed above. Output spec: labels arranged per the requested ranking.
S, R, P, Q

* * *

Molecular target: TXK (Homo sapiens)
Sequence (P42681 1-527): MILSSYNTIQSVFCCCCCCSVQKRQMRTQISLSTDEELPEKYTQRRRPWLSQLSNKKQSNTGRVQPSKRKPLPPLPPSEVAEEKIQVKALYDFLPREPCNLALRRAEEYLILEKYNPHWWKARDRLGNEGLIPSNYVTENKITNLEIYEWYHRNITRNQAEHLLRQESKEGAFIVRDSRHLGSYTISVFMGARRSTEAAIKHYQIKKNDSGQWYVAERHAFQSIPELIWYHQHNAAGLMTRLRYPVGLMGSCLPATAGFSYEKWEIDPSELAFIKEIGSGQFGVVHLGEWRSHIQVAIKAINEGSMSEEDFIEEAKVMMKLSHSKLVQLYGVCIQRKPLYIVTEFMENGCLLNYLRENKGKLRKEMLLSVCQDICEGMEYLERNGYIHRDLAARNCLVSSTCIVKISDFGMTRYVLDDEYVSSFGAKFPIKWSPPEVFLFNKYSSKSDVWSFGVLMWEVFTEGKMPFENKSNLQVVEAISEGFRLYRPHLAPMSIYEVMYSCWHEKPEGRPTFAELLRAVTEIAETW
PROPERTY: pIC50
pIC50 field: float, defined as -log10 of concentration (mol/L).

// recorded pIC50 for C=CC(=O)Nc1cc(CN2CCN(C)C(=O)C2)cc(-c2cnc3ccccc3n2)c1 : 7.50

* * *

molecular target: CK1g2 (Homo sapiens)
Sequence (P78368 whole entry, species assumed): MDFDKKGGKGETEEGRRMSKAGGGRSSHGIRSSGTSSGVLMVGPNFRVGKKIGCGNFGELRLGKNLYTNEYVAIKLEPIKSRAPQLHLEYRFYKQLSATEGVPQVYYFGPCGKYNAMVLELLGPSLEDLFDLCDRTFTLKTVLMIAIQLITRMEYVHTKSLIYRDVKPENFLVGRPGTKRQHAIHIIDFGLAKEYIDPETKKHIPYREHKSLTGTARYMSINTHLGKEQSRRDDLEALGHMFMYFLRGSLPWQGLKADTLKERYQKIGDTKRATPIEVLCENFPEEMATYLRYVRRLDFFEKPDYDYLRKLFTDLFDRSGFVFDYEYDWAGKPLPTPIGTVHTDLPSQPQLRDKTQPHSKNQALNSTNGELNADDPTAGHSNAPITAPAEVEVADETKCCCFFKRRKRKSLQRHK
pIC50: −log10 of the molar value.
PROPERTY: pIC50

// recorded pIC50 for C=CC(=O)Nc1cc(CN2CCN(C)C(=O)C2)cc(-c2cnc3ccccc3n2)c1 : 6.61

I = C=CC(=O)Nc1cc(CN2CCNC(=O)C2)cc(-c2cnc3ccccc3n2)c1
II = C=CC(=O)Nc1cc(NS(C)(=O)=O)cc(-c2cnc3ccccc3n2)c1
For the pair I and II , which member has the lower pIC50 number? Your answer should be the label of the entry you select.
I
(I: 6.49, II: 7.48)

* * *

target: JAK3 (Homo sapiens); assay: Exemplary Kinase Panel Analysis; type: biochemical; details: 10 concentrations, 3-fold serial dilutions starting at 5 μM, duplicate
Sequence (P52333 whole entry): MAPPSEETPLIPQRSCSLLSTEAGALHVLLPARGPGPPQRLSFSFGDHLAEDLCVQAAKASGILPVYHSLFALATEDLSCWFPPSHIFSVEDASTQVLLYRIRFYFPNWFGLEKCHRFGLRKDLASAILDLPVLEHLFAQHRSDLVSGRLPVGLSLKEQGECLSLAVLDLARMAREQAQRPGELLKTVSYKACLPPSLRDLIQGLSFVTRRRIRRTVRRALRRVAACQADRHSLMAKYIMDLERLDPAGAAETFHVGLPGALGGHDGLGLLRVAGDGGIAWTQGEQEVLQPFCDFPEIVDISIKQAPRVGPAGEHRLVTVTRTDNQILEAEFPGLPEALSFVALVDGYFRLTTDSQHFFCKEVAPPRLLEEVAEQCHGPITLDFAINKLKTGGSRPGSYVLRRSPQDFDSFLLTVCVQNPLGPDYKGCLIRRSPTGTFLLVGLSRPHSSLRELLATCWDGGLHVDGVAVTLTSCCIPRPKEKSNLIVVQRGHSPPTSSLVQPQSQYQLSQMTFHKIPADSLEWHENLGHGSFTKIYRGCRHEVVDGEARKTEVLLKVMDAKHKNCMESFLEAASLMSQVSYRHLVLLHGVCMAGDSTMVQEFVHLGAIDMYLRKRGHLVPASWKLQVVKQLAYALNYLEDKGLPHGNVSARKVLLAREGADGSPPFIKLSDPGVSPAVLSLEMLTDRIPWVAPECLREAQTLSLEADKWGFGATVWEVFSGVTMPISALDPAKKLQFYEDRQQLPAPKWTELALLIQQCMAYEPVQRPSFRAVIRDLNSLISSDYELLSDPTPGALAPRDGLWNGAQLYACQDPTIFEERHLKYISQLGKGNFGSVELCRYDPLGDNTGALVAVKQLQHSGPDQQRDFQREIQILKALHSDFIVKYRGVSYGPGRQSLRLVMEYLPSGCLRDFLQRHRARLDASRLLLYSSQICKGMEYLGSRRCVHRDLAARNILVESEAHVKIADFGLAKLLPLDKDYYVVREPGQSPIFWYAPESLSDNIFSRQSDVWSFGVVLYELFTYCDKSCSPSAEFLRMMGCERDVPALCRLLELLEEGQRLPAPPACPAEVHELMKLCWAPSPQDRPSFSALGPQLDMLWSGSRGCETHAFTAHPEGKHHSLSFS
PROPERTY: IC50 (nM)

// recorded IC50 for C=CC(=O)Nc1cc(CC(=O)OC)cc(-c2cnc3ccccc3n2)c1 [Compound 2] : 1.19

1 = C=CC(=O)Nc1cc(NS(C)(=O)=O)cc(-c2cnc3ccccc3n2)c1 [Compound 3]
2 = C=CC(=O)Nc1cc(CN2CCN(C)C(=O)C2)cc(-c2cnc3ccccc3n2)c1 [Compound 1a]
3 = C=CC(=O)Nc1cc(CN2CCNC(=O)C2)cc(-c2cnc3ccccc3n2)c1 [Compound 1b]
Arrange the 3 compounds by rising IC50, starting with the smallest. Output spec: labels arranged per the requested ranking.
3, 2, 1

Numbers sourced from patent US10045981B2.
